Measurement Target: GST-RIPK2 fusion protein (human RIPK2, amino acids 1-310) (Homo sapiens)
Construct: made in house; host or cells: baculovirus infected Sf9 cells
Sequence (O43353 1-310): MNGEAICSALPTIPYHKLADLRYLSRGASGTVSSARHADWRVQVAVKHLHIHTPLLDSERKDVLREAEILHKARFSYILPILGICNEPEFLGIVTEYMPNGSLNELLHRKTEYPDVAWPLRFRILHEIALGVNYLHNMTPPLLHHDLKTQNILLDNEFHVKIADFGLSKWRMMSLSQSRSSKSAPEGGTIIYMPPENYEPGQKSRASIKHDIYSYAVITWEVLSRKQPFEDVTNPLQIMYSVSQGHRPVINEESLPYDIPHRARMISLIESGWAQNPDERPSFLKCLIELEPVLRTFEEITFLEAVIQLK
Assay Summary: RIPK2 binding competition assay (TR-FRET, Tracer 199 displacement)
Assay Setup: 10 nM Tracer 199, 1 nM GST-RIPK2, read-out: RIPK2 IC50
Parameter Measured: IC50

                                   molecule                        measurement_target           val
0  CC(C)(C)S(=O)(=O)c1cn2c(-c3cnc4[nH]c(Cl)cc4c3)cnc2cc1OCCO [Example 233]  GST-RIPK2 fusion protein (human RIPK2, amino acids 1-310) (Homo sapiens)  2.5 to 20 nM
1  COc1cc2ncc(-c3ccc4c(N)nn(C)c4c3)n2cc1S(=O)(=O)C(C)(C)C [Example 102]  GST-RIPK2 fusion protein (human RIPK2, amino acids 1-310) (Homo sapiens)       > 20 nM
2  COc1cc2ncc(-c3cc(F)c(N)nc3F)n2cc1S(=O)(=O)C(C)(C)CO [Example 60]  GST-RIPK2 fusion protein (human RIPK2, amino acids 1-310) (Homo sapiens)  2.5 to 20 nM

Enter recorded IC50 with GST-RIPK2 fusion protein (human RIPK2, amino acids 1-310) (Homo sapiens) for CC(C)(C)S(=O)(=O)c1cn2c(-c3cc(F)c(N)nc3F)cnc2cc1OC1CCN(CCO)C1 (stereo not shown) [Example 43] here.
2.5 to 20 nM

Enter recorded IC50 with GST-RIPK2 fusion protein (human RIPK2, amino acids 1-310) (Homo sapiens) for CC(C)(C)S(=O)(=O)c1cn2c(-c3cc(F)c(N)nc3F)cnc2cc1OCCN1CCNCC1 [Example 21] here.
1 to 2.5 nM

Enter recorded IC50 with GST-RIPK2 fusion protein (human RIPK2, amino acids 1-310) (Homo sapiens) for CN(C)CCOc1cc2ncc(-c3cc(F)c(N)nc3F)n2cc1S(=O)(=O)C(C)(C)C [Example 20] here.
2.5 to 20 nM

---

Measurement Target: binding of His-XIAP(BIR2)-avi fusion protein to GST-RIPK2 fusion protein (RIPK2/XIAP) (Homo sapiens)
Construct: made in house; host or cells: baculovirus infected Sf9 cells
Assay Summary: RIPK2-XIAP binding competition PPI assay (TR-FRET)
Assay Setup: RIPK2/XIAP binding competition PPI assay; read-out: PPI IC50 bin
Measured IC50 values are reported for all entries that follow.

In [3]: df
Out[3]:
                                   compound          val
0  CC(C)(O)COc1cc2ncc(-c3cc(Cl)c(N)nc3F)n2cc1S(=O)(=O)C(C)(C)C [Example 240]  1 to 2.5 nM
1  COc1cc2ncc(-c3cc(F)c(N)nc3F)n2cc1S(=O)(=O)N1CCN(C)CC1 [Example 165]      > 20 nM
2  CC(C)(C)S(=O)(=O)c1cn2c(-c3cnc4[nH]cnc4c3)cnc2cc1OCCO [Example 229]      > 20 nM

Consider the record given below.
State its IC50: CC(C)(C)S(=O)(=O)c1cn2c(-c3ccc4[nH]ccc4n3)cnc2cc1OCCO [Example 278]
2.5 to 20 nM

---

Measurement Target: binding of His-XIAP(BIR2)-avi fusion protein to GST-RIPK2 fusion protein (RIPK2/XIAP) (Homo sapiens)
Construct: made in house; host or cells: baculovirus infected Sf9 cells
Assay Summary: RIPK2-XIAP binding competition PPI assay (TR-FRET)
Assay Setup: RIPK2/XIAP binding competition PPI assay; read-out: PPI IC50 bin
pIC50: −log10 of the molar value.
Measured pIC50 values are reported for all entries that follow.

Past entries and their recorded results:
                            molecule_smiles           val
0  COc1cc2ncc(-c3cc(F)c(OC)c(NS(=O)(=O)c4cc(C)sn4)c3)n2cc1S(=O)(=O)C(C)(C)C        > 9.00
1  CC(C)(C)S(=O)(=O)c1cn2c(-c3ccc4ccnn4c3)cnc2cc1OCCO        < 7.70
2  CN1CCN(CCOc2cc3ncc(-c4cc(F)c(N)nc4F)n3cc2S(=O)(=O)C(C)(C)C)CC1  7.70 to 8.60
3  COc1cc2ncc(-c3cc(NS(=O)(=O)c4cnn(C)c4)c(OC)c(OC)c3)n2cc1N1CCCC1=O  8.60 to 9.00
4  CC(C)(C)S(=O)(=O)c1cn2c(-c3cc(F)c(N)nc3F)cnc2cc1OC[C@H]1C[C@@H](O)C1  8.60 to 9.00

State its pIC50: CCS(=O)(=O)Nc1cc(-c2cnn3cc(OC)c(N4C(=O)OCC4(C)C)nc23)cc(F)c1OC
7.70 to 8.60

State its pIC50: COc1cc2ncc(-c3ccc4c(c3)c(C)nn4C)n2cc1S(=O)(=O)C(C)(C)C
< 7.70

---

Measurement Target: binding of His-XIAP(BIR2)-avi fusion protein to GST-RIPK2 fusion protein (RIPK2/XIAP) (Homo sapiens, UniProt O43353)
Construct: made in house; host or cells: baculovirus infected Sf9 cells
Sequence (O43353 1-310 limits assumed): as the sequence (O43353 1-310) above
Assay Summary: RIPK2-XIAP binding competition PPI assay (TR-FRET)
Assay Setup: RIPK2/XIAP binding competition PPI assay, Amax; read-out: PPI Amax bin
Parameter Measured: Emax

Past entries and their recorded results:
In [3]: df
Out[3]:
                                   compound    val
0  C[C@@H](CO)COc1cn2ncc(-c3cc(Cl)c(N)nc3F)c2cc1S(=O)(=O)C(C)(C)C [Example 199]  > 80%
1  COc1cc2ncc(-c3ccc4c(N)noc4c3)n2cc1S(=O)(=O)C(C)(C)C [Example 93]  < 30%

Consider the record given below.
State its Emax: COc1c(F)cc(-c2cnc3cc(OC[C@@H](C)O)c(S(=O)(=O)C(C)(C)C)cn23)cc1NS(=O)(=O)c1cnn(C)c1 [Example 253]
> 80%

---

Measurement Target: binding of His-XIAP(BIR2)-avi fusion protein to GST-RIPK2 fusion protein (RIPK2/XIAP) (Homo sapiens)
Construct: made in house; host or cells: baculovirus infected Sf9 cells
Assay Summary: RIPK2-XIAP binding competition PPI assay (TR-FRET)
Assay Setup: RIPK2/XIAP binding competition PPI assay, Amax; read-out: PPI Amax bin
Measured Emax values are reported for all entries that follow.

Past entries and their recorded results:
In [3]: df
Out[3]:
                                   compound    val
0  COc1cc2ncc(-c3cnn4ncccc34)n2cc1S(=O)(=O)C(C)(C)C [Example 114]  < 30%
1  CC(CO)COc1cc2ncc(-c3cc(F)c(N)nc3F)n2cc1S(=O)(=O)C(C)(C)C (racemic) [Example 174]  > 80%
2  COc1cc2ncc(-c3cc(F)c(OC)c(NS(=O)(=O)c4cn[nH]c4)c3)n2cc1S(=O)(=O)C(C)(C)C [Example 140]  > 80%
3  COc1cc2ncc(-c3cccc(NS(=O)(=O)C4CC4)c3)n2cc1S(=O)(=O)C(C)(C)C [Example 146]  > 80%
4  CC(C)(C)S(=O)(=O)c1cc2c(-c3cc(F)c(N)nc3F)cnn2cc1OCCOP(=O)(O)O [Example 188]  > 80%

State its Emax: COc1cc2ncc(-c3cc(F)c(OC)c(NS(=O)(=O)C4CCC4)c3)n2cc1S(=O)(=O)C(C)(C)C [Example 145]
> 80%

State its Emax: COc1cc2ncc(-c3cc(F)c(OC)c(NS(=O)(=O)C4COC4)c3)n2cc1S(=O)(=O)C(C)(C)C [Example 142]
> 80%

State its Emax: COc1cc2ncc(-c3cc(F)c(OC)c(NS(=O)(=O)c4c(C)nn(C)c4C)c3)n2cc1S(=O)(=O)C(C)(C)C [Example 139]
55 to 80%

---

Measured pIC50 values are reported for all entries that follow.
Measurement Target: GST-RIPK2 fusion protein (human RIPK2, amino acids 1-310) (Homo sapiens)
Construct: made in house; host or cells: baculovirus infected Sf9 cells
Assay Summary: RIPK2 binding competition assay (TR-FRET, Tracer 199 displacement)
Assay Setup: 10 nM Tracer 199, 1 nM GST-RIPK2, read-out: RIPK2 IC50
pIC50: −log10 of the molar value.

                                   compound           val
0  C[C@H](CO)COc1cc2ncc(-c3cc(F)c(N)nc3F)n2cc1S(=O)(=O)C(C)(C)C  8.60 to 9.00
1  CC(C)(C)S(=O)(=O)c1cc2c(-c3cc(F)c(N)nc3F)cnn2cc1OCC(O)CO (stereo not shown)  8.60 to 9.00
2  CCS(=O)(=O)Nc1cc(-c2cnc3cc(OC)c(S(=O)(=O)C(C)(C)CO)cn23)cc(Cl)c1OC  8.60 to 9.00
3  CC(C)(N)COc1cc2ncc(-c3cc(Cl)c(N)nc3F)n2cc1S(=O)(=O)C(C)(C)C  7.70 to 8.60
4  Cn1cc(COc2cc3ncc(-c4cc(F)c(N)nc4F)n3cc2S(=O)(=O)C(C)(C)C)cn1  7.70 to 8.60

State its pIC50: CN(C)C(=O)c1cc2ncc(-c3cc(F)c(N)nc3F)n2cc1S(=O)(=O)C(C)(C)C
< 7.70

State its pIC50: COc1c(F)cc(-c2cnc3cc(OCCO)c(S(=O)(=O)C(C)(C)C)cn23)cc1NS(=O)(=O)c1cnn(C)c1
> 9.00
